System: OCI-AML-2
experiment.notes: In vitro combination studies, CellTitre-Glo cell viability
stated.conditions: OCI-AML-2; in combination with Compound 1
assay.endpoint: Synergy analysis for combinations with Compound 1

[
  {
    "compound": "Cn1cc(-c2cc(S(C)(=O)=O)ccc2OCC2CC2)c2ccccc2c1=O [Compound A, reference compound]",
    "observed.value": "Yes"
  },
  {
    "compound": "COc1ccc(-c2ccc3c(N4CCOC[C@@H]4C)nc(N4CCOC[C@@H]4C)nc3n2)cc1CO",
    "observed.value": "Yes"
  },
  {
    "compound": "CO[C@H]1/C=C\\C=C(/C)C(=O)NC2=CC(=O)C(NCCN(C)C)=C(C[C@@H](C)C[C@H](OC)[C@H](O)[C@@H](C)/C=C(\\C)[C@@H]1OC(N)=O)C2=O",
    "observed.value": "Yes"
  }
]

----------
System: HNT-34
experiment.notes: In vitro combination studies, CellTitre-Glo cell viability
stated.conditions: HNT-34; in combination with Compound 1
assay.endpoint: Synergy analysis for combinations with Compound 1

[
  {
    "compound": "CCN1C(=O)CNc2ncc(-c3ccc(-c4nc[nH]n4)nc3C)nc21 [CC-115, reference compound]",
    "observed.value": "Yes"
  },
  {
    "compound": "CO[C@H]1C[C@@H]2CC[C@@H](C)[C@@](O)(O2)C(=O)C(=O)N2CCCC[C@H]2C(=O)O[C@H]([C@H](C)C[C@@H]2CC[C@@H](OCCO)[C@H](OC)C2)CC(=O)[C@H](C)/C=C(\\C)[C@@H](O)[C@@H](OC)C(=O)[C@H](C)C[C@H](C)/C=C/C=C/C=C/1C [everolimus, reference compound]",
    "observed.value": "No"
  }
]

----------
experiment.notes: physchem
Format: physicochemical
stated.conditions: organic solvent or mixture, thermodynamic from solid, drug solubility in formic acid
assay.endpoint: solubility

Problem: Param item = O=C1CCC(N2Cc3cc(CNC(=O)C(F)(F)c4ccc(Cl)cc4)ccc3C2=O)C(=O)N1 (stereo not shown) ; retrieve measured solubility.
Result: ~170 mg/mL

----------
System: MOLM-13
experiment.notes: In vitro combination studies, CellTitre-Glo cell viability
stated.conditions: MOLM-13; in combination with Compound 1
assay.endpoint: Synergy analysis for combinations with Compound 1

[
  {
    "compound": "CC(C)[C@]12O[C@H]1[C@@H]1O[C@]13[C@]1(O[C@H]1C[C@H]1C4=C(CC[C@@]13C)C(=O)OC4)[C@@H]2O [Triptolide]",
    "observed.value": "Yes"
  },
  {
    "compound": "CC(C)n1nc(-c2ccc3oc(N)nc3c2)c2c(N)ncnc21",
    "observed.value": "Yes"
  },
  {
    "compound": "CCN1C(=O)CNc2ncc(-c3ccc(-c4nc[nH]n4)nc3C)nc21 [CC-115, reference compound]",
    "observed.value": "Yes"
  },
  {
    "compound": "COc1ccc(-c2ccc3c(N4CCOC[C@@H]4C)nc(N4CCOC[C@@H]4C)nc3n2)cc1CO",
    "observed.value": "Yes"
  },
  {
    "compound": "C/C=C(/C)C(=O)O[C@H]1C(C)=C2[C@H]([C@@H]1OC(=O)CCCCCCC)[C@@](C)(OC(C)=O)C[C@H](OC(=O)CCC)[C@@]1(O)[C@H]2OC(=O)[C@@]1(C)O",
    "observed.value": "No"
  },
  {
    "compound": "COC(=O)[C@H]1[C@@H](O)[C@@]2(O)c3c(OC)cc(O[C@@H]4O[C@@H]([C@H](O)CO)CO[C@H]4OC)cc3O[C@@]2(c2ccc(OC)cc2)[C@@H]1c1ccccc1",
    "observed.value": "No"
  }
]

Problem: What measured Synergy analysis for combinations with Compound 1 is associated with CC(C)C[C@H](NC(=O)CNC(=O)c1cc(Cl)ccc1Cl)B(O)O on MOLM-13?
Result: No

Problem: What measured Synergy analysis for combinations with Compound 1 is associated with COC(=O)C[C@](O)(CCCC(C)(C)O)C(=O)O[C@@H]1C(OC)=C[C@]23CCCN2CCc2cc4c(cc2[C@H]13)OCO4 on MOLM-13?
Result: No

Problem: What measured Synergy analysis for combinations with Compound 1 is associated with CO[C@H]1/C=C\C=C(/C)C(=O)NC2=CC(=O)C(NCCN(C)C)=C(C[C@@H](C)C[C@H](OC)[C@H](O)[C@@H](C)/C=C(\C)[C@@H]1OC(N)=O)C2=O on MOLM-13?
Result: No
